Please respond with reported growth for every item in the list.
Test system: T-47D breast
test.method.notes: NCI-60 one-dose screen, 48 h (100 = growth as untreated, 0 = no growth, -100 = all killed)
assay.conditions: 10 µM unless noted
Compounds without any hit were thinned out: in the full panel of roughly 83,000, 20% have a hit.
Report only the number, with the unit % understood.

## Input Identify growth associated with the compound "Cc1cc(O)ccc1Sc1ccccc1[N+](=O)[O-]"
## Output 98.7

## Input Return the recorded growth value; entry: "Nc1ccc(C2=NNC(=O)Cc3cc4c(cc32)OCCO4)cc1Cl"
## Output 44.2

## Input State, in one line, measured growth of "O=[N+]([O-])c1ccc(N=Nc2c(NNc3ccc([N+](=O)[O-])cn3)cc(S(=O)(=O)O)c3ccccc23)nc1"
## Output 90.9

## Input Return the recorded growth value; entry: "CCS(=O)(=O)Nc1cccc(Nc2c3cccc(C)c3nc3c(C)cccc23)c1OC"
## Output 22.2

## Input Retrieve growth measured for "CC(=O)Nc1ccc(/C=N/N2CCCCCC2)cc1" and print it.
## Output 100

###

Tested on: IGROV1 ovarian
test.method.notes: NCI-60 one-dose screen, 48 h (100 = growth as untreated, 0 = no growth, -100 = all killed)
assay.conditions: 10 µM unless noted
About 83,000 compounds went through this panel and 20% of them were active in at least one assay; those are over-represented in the sample as a whole.
Kindly state growth for each of the entries shown.
State just the number; it will be interpreted in %.

## Input Consider the compound "CC(C)(C)c1cc(C[P+](c2ccccc2)(c2ccccc2)c2ccccc2)cc(C(C)(C)C)c1O" . State its measured growth.
## Output 12.1

## Input Check the records and state growth for "CCCCCCCCCCCCCCCCCC(=O)[O][Sn]([CH2]CCC)([CH2]CCC)[CH2]CCC"
## Output -88.7

## Input Give me measured growth, please, for this compound: "CS(=O)(=O)c1ccc(Cl)c([N+](=O)[O-])c1"
## Output 38.5

## Input Provide one value: measured growth of COc1cc(C2CC(c3ccc(C)cc3)=NN2C=O)ccc1Oc1nc2c(c(=O)n(C)c(=O)n2C)n1C (stereo not given)
## Output 82.6

## Input Write down growth measured for item CN1C(=O)N(C)C2C1NN=c1s/c(=C\c3ccsc3)c(=O)n12 (stereo not given)
## Output 46.9

###

System: HS 578T breast
test.method.notes: NCI-60 one-dose screen, 48 h (100 = growth as untreated, 0 = no growth, -100 = all killed)
assay.conditions: 10 µM unless noted
The panel holds about 83,000 compounds, 20% with a hit somewhere; the sample as a whole holds those more often.
Could you please report measured growth for the items listed next?
Field: numeric (%). Do not append units.

## Input Identify growth associated with the compound "O=[N+]([O-])c1ccc(N/N=C/c2ccccc2O)nc1"
## Output 79.7

## Input # return recorded growth for entry "CCOC(=O)N1C2CCC(C2)N1C(=O)OCC"
## Output 111

## Input Indicate the recorded growth value for this compound: "CCOC(=O)C(CCCCC(NC(C)=O)(C(=O)OCC)C(=O)OCC)(NC(C)=O)C(=O)OCC"
## Output 104

## Input Given "CCc1c(C)c2ccc(O)c(-c3cc(-c4ccccc4)c(C#N)c(=O)[nH]3)c2oc1=O" , respond with its growth.
## Output 118

## Input // fetch growth given entry CCN1C(=O)N(CC)C2C1NN=c1s/c(=C\c3ccc(Br)cc3)c(=O)n12 (stereo unspecified)
## Output 54

## Input Give the measured growth for CCOC(=O)C1=C(C(=O)OCC)N(c2cc(OC)c(OC)c(OC)c2)C(N)=C(C#N)C1c1cc(=O)[nH]c2ccccc12 (stereo unspecified)
## Output 97.2

## Input Indicate the recorded growth value for this compound: "C=C1C(=O)O[C@H]2[C@H]1CC/C(COC(=O)N[C@@H](Cc1c[nH]c3ccccc13)C(=O)OC)=C\CC[C@@]1(C)O[C@@H]21"
## Output 77.8

## Input Supply recorded growth for "O=C(/C=C/c1ccccc1Br)c1cccc(OCCCCOc2cccc(C(=O)/C=C/c3ccccc3Br)c2)c1" here.
## Output 102

## Input Please supply the value of reported growth for the item "C(=Nc1ccc(-c2ccc(N=Cc3ccccc3)cc2)cc1)c1ccccc1"
## Output 82.1

## Input Given CCOC(=O)C1=C(C)NC(=S)NC1c1ccccc1 (stereo unspecified) , respond with its growth.
## Output 98.9

## Input Tell me growth reported for "CC(C)(C)OC(=O)N1CCCN(CCNc2nccc(-c3c(-c4cccc(O)c4)nc4sccn34)n2)S1(=O)=O"
## Output 109

## Input Using the record for CCC1=CC2CN(C1)Cc1c([nH]c3ccccc13)[C@@](C(=O)OC)(c1cc3c(cc1OC)N(C)[C@H]1[C@@](O)(C(=O)OC)[C@H](OC(C)=O)[C@]4(CC)C=CCN5CC[C@]31[C@@H]54)C2 (stereo partly specified) , state its measured growth.
## Output 29.1

## Input Fill in reported growth for this entry: "CCN(CC)c1cc(C)c(Cc2c(OC)ccc3ccccc23)cc1C"
## Output 81

## Input Item "O=C(/C=C/c1ccc(F)cc1)N1CCN(C(=O)/C=C/c2ccc(C(F)(F)F)cc2)CC1" : provide growth
## Output 123

## Input Check the records and state growth for "CCC(=O)OCc1ccc(OC)cc1"
## Output 135

## Input Give the reported value of growth for this record: "CC1(C)CN(CCNc2nccc(-c3c(-c4cccc(O)c4)nc4sccn34)n2)S(=O)(=O)N1"
## Output 71.6

## Input Name the recorded growth of the item "COc1ccc(/C(C)=N/NC(=O)c2ccc(S(C)(=O)=O)cc2)cc1OC" in your answer.
## Output 100

## Input Identify growth associated with the compound COc1cc(C2CC(c3ccccc3)=NN2C=O)ccc1Oc1ccnc2cc(Cl)ccc12 (stereo unspecified)
## Output 76.2

## Input Check the records and state growth for OC(CCCCCCCCC(O)CN1CCc2ccccc2C1)CN1CCc2ccccc2C1 (stereo unspecified)
## Output 108

## Input State its growth: "O=C1SCN(Cc2ccccc2)CN1Cc1ccccc1"
## Output 95.5

## Input # return recorded growth for input O=C1OCC2=C1C(c1ccccc1)c1cc3c(cc1N2CCO)OCO3 (stereo unspecified)
## Output 23.1

## Input Output growth of "Cc1cc(O)ccc1Sc1ccccc1[N+](=O)[O-]"
## Output 80

## Input Look up growth of "CS(=O)(=O)c1ccc(C(=O)N/N=C/c2ccccc2Cl)cc1" and report it.
## Output 98.1

## Input Return value of growth for input "NNC(=O)CSc1nc2scc(-c3ccccc3)c2c(=O)n1-c1ccccc1" , no commentary.
## Output 89.2

## Input Consider the compound CC1=CC(=O)OC1C/C=C(\C)CCC1[C@@]2(C)CCC[C@@](C)(C(=O)O)C2CC[C@@]1(C)O (stereo partly specified) . State its measured growth.
## Output 38.5

## Input Determine from records and report growth for "COc1cc2ncnc(Nc3ccc(S(=O)(=O)Nc4nccs4)cc3)c2cc1OCCCN1CCOCC1"
## Output 99.9

###

Tested on: MOLT-4 leukemia
test.method.notes: NCI-60 one-dose screen, 48 h (100 = growth as untreated, 0 = no growth, -100 = all killed)
assay.conditions: 10 µM unless noted
About 83,000 compounds went through this panel and 20% of them were active in at least one assay; those are over-represented in the sample as a whole.
quantity.name: growth (%)
Report as a plain number; the unit % is understood.

## Input Supply reported growth belonging to this molecule: "Fc1cc(-c2cnc3nonc3n2)c(Cl)cc1Cl"
## Output 20.2

## Input For the molecule "Nc1c(N)c2ccccc2c2ccccc12" , give its reported growth.
## Output 100

## Input Look up growth of "COc1ccc(Cl)cc1Nc1nc(C(F)(F)F)ccc1C(=O)NN" and report it.
## Output 24.5

## Input Identify the reported growth for the following entry. CN1C(=O)N(C)C2C1NN=c1s/c(=C\c3ccc(C(F)(F)F)cc3)c(=O)n12 (stereo not given)
## Output 37.2

## Input Give growth for "Cc1c2c(cc3c1[nH]c1ccccc13)C=NCC2"
## Output 83.3

## Input Fill in reported growth for this entry: COc1cc(C2CC(c3ccc(C)cc3)=NN2C=O)ccc1Oc1ccnc2cc(Cl)ccc12 (stereo not given)
## Output 80.3

## Input Look up growth of "COc1cccc(/C(C)=N/NC(=O)CSc2nc3ccccc3c(=O)n2CCc2ccc(S(N)(=O)=O)cc2)c1" and report it.
## Output 14.4

## Input Look up growth of CC(C)c1ccc2c(c1)CCC1C2CCCC1(C)NCc1ccccc1 (stereo not given) and report it.
## Output 39.9

## Input Tell us which growth value is on record for "Clc1ccc(C2=NN[C@H](c3cn(-c4ccccc4)nc3-c3ccccc3)C2)cc1"
## Output 77.9

## Input Read off the recorded growth for "O=[N+]([O-])c1ccc(N=Nc2c(NNc3ccc([N+](=O)[O-])cn3)cc(S(=O)(=O)O)c3ccccc23)nc1"
## Output 70.9
